# subject_of_test: human recombinant HDAC6 (Homo sapiens, UniProt Q9UBN7)
# Construct: purchased Calbiochem Inc. 382180
# Sequence (Q9UBN7 whole entry): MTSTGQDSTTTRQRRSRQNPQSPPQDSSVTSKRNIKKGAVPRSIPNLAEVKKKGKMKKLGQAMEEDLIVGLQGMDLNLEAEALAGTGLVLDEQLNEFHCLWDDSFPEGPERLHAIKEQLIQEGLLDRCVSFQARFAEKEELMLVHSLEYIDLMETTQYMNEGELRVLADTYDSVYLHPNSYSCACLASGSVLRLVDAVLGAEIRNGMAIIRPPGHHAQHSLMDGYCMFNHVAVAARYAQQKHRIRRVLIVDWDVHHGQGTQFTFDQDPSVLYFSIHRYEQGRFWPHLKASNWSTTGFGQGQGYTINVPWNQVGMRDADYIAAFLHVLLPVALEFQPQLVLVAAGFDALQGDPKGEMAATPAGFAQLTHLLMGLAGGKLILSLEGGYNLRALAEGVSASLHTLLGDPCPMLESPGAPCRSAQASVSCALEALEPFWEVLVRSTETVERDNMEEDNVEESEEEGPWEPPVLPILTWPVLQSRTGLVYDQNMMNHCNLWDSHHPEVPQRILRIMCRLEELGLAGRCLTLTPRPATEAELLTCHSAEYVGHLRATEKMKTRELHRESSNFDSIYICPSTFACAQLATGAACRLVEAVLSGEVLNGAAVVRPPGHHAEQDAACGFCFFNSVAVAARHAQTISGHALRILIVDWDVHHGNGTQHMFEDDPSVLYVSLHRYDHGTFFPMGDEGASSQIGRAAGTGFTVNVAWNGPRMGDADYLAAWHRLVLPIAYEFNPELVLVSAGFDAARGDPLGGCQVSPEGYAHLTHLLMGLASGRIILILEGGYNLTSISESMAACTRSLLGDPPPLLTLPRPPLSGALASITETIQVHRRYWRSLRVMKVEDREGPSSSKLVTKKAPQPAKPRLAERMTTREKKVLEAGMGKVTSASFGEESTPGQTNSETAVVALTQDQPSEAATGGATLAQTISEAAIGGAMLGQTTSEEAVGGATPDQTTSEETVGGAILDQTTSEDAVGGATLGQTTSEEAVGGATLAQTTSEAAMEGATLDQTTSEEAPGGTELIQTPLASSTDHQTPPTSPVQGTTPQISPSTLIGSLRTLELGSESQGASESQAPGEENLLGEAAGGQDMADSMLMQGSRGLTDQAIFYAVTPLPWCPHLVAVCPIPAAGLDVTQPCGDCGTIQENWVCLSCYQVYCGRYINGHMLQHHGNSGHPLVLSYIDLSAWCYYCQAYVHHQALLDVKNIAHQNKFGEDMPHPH
# experiment_notes: HDAC6 enzyme activity inhibition (HDAC Fluorimetric Drug Discovery Kit)
# Format: biochemical
# condition_set: HDAC1 IC50 / HDAC6 IC50
Heads up, the class ranges for HDAC6 selectivity (fold) are A: < 200 fold; B: ≥ 200 fold and < 1000 fold; C: ≥ 1000 fold

molecule	class_label
Fc1cc(-c2nnc(C(F)F)o2)ccc1Cn1cc(-c2cccc(C(F)F)c2)nn1 [Compound 4488]	C
CCC(=O)N1CCN(c2cccc(-c3cn(Cc4ccc(-c5nnc(C(F)F)o5)cc4)nn3)c2)CC1 [Compound 4372]	B
FC(F)c1nnc(-c2ccc(Cn3cc(-c4cccc5[nH]cc(CN6CCOCC6)c45)nn3)nc2)o1 [Compound 4023]	A
FC(F)c1nnc(-c2ccc(Cn3cnc(-c4ccccc4)c3)nc2)o1 [Compound 3950]	B
CCN1CCc2ccc(-c3cn(Cc4ccc(-c5nnc(C(F)F)o5)cc4F)nn3)cc2C1 [Compound 4364]	C
Fc1cc(-c2nnc(C(F)F)o2)ccc1Cn1cc(C2(F)COC2)nn1 [Compound 4282]	B
OCc1c(-c2ccccc2)nnn1Cc1ccc(-c2nnc(C(F)F)o2)cc1F [Compound 4479]	A
CN1CCN(c2ccccc2-c2cn(Cc3ccc(-c4nnc(C(F)F)o4)cn3)nn2)CC1 [Compound 4106]	B
Fc1cc(-c2nnc(C(F)F)o2)ccc1Cn1cc(-c2ccc(CN3CCC(F)(F)CC3)cc2)nn1 [Compound 4472]	B
OC1(c2cn(Cc3ccc(-c4nnc(C(F)F)o4)cn3)nn2)CCOC1 (centres unmarked) [Compound 4277]	B
Fc1cc(-c2nnc(C(F)F)o2)ccc1Cn1cc(-c2ccc(CNC3CCC(F)(F)CC3)cc2)nn1 [Compound 4477]	C

====

Recorded HDAC6 selectivity (fold) values for a group of compounds are listed next.
# subject_of_test: human recombinant HDAC6 (Homo sapiens, UniProt Q9UBN7)
# Construct: purchased Calbiochem Inc. 382180
# experiment_notes: HDAC6 enzyme activity inhibition (HDAC Fluorimetric Drug Discovery Kit)
# Assay type: biochemical
# condition_set: HDAC1 IC50 / HDAC6 IC50

compound	units_label	HDAC6 selectivity (fold)
OC1(c2cn(Cc3ccc(-c4nnc(C(F)F)o4)cn3)nn2)COC1	fold	143
Fc1cc(-c2nnc(C(F)F)o2)ccc1Cn1cc(-c2cccc(N3C[C@@H]4C[C@H]3CN4)c2)nn1	fold	206
FC(F)c1nnc(-c2ccc(Cn3cc(-c4ccccc4N4CCOCC4)nn3)nc2)o1	fold	500
CCN1CCN(c2cccc(-c3cn(Cc4ccc(-c5nnc(C(F)F)o5)cc4)nn3)c2)CC1	fold	1533
FC(F)c1nnc(-c2ccc(Cn3cc(C4CCCN(C5COC5)C4)nn3)nc2)o1 (centres unmarked)	fold	103
Fc1cc(-c2nnc(C(F)F)o2)ccc1Cn1cc(-c2ccc(CNC3CCC3)cc2)nn1	fold	370
FC(F)c1nnc(-c2ccc(Cn3cc(-c4cccc(CN5CC6(COC6)C5)c4)nn3)nc2)o1	fold	1392
CCN1CCN(c2cccc(-c3cn(Cc4ccc(-c5nnc(C(F)F)o5)cn4)nn3)c2)CC1	fold	4716
FC(F)c1nnc(-c2ccc(Cn3cc(C4CCCCC4)nn3)nc2)o1	fold	627
CC1CCN(Cc2c[nH]c3cc(-c4cn(Cc5ccc(-c6nnc(C(F)F)o6)cc5)nn4)ccc23)CC1	fold	3333
Fc1cc(-c2nnc(C(F)F)o2)ccc1Cn1cc(-c2ccc3cn[nH]c3c2)nn1	fold	1453
FC1CN(Cc2cccc(-c3cn(Cc4ccc(-c5nnc(C(F)F)o5)cc4)nn3)c2)C1	fold	781
FC(F)c1nnc(-c2ccc(Cn3cc(-c4cccc(NC5COC5)c4)nn3)cc2)o1	fold	889
CCN1CCc2cc(-c3cn(Cc4ccc(-c5nnc(C(F)F)o5)cn4)nn3)ccc2C1	fold	1128
FC1CN(Cc2cccc(-c3cn(Cc4ccc(-c5nnc(C(F)F)o5)cn4)nn3)c2)C1	fold	1908
OCc1ccc(-c2cn(Cc3ccc(-c4nnc(C(F)F)o4)cc3F)nn2)cc1	fold	1022
FC(F)c1nnc(-c2ccc(Cn3cc(-c4cccc5[nH]ccc45)nn3)nc2)o1	fold	6756

The origin of these recorded values is patent US20230257372A1.
